Test: Ratio of drug level in brain to plasma in rat at 5 mg/kg
Format: ADME, organism-based
Parameters: dose 5 mg/kg
measurementName: Kp
Answer field: number only, no words.

Data point: O=C(O)CN1CCN(c2nc3cccc(F)c3n3cccc23)CC1 ; Kp = 0.1

---

Molecular target: Alpha-2A adrenergic receptor (Rattus norvegicus)
Sequence (P22909 whole entry): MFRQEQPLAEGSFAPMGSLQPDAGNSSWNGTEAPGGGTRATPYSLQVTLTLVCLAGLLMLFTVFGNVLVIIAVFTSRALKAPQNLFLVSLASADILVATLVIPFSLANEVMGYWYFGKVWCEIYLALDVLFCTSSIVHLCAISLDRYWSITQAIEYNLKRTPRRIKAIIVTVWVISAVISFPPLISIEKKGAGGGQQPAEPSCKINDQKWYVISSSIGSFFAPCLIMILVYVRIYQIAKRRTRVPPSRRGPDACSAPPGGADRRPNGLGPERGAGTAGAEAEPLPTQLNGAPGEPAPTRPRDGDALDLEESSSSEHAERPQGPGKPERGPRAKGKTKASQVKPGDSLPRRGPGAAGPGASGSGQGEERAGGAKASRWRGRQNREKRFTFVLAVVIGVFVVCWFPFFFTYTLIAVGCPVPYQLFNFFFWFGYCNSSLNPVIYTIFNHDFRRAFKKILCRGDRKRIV
pKi: −log10 of the molar value.
measurementName: pKi

smilesEntry: N[C@@H](CN1CCN(c2nc3cc(F)ccc3n3cccc23)CC1)C(=O)O
pKi: < 5.00

We next turn to a different compound, shown below.
Data point: N/C(CN1CCN(c2nc3cc(F)ccc3n3cccc23)CC1)=N\O ; pKi = < 5.00
